From: patent US11844843

- study system: T1, recombinant human TfR1 (transferrin receptor protein 1) (human, UniProt P02786 89-760)
- T1 construct: Recombinant protein in SPR and ELISA; they were assigned to this molecule; also called hTfR1; huTfR1
- T1 sequence (P02786 89-760 limits assumed): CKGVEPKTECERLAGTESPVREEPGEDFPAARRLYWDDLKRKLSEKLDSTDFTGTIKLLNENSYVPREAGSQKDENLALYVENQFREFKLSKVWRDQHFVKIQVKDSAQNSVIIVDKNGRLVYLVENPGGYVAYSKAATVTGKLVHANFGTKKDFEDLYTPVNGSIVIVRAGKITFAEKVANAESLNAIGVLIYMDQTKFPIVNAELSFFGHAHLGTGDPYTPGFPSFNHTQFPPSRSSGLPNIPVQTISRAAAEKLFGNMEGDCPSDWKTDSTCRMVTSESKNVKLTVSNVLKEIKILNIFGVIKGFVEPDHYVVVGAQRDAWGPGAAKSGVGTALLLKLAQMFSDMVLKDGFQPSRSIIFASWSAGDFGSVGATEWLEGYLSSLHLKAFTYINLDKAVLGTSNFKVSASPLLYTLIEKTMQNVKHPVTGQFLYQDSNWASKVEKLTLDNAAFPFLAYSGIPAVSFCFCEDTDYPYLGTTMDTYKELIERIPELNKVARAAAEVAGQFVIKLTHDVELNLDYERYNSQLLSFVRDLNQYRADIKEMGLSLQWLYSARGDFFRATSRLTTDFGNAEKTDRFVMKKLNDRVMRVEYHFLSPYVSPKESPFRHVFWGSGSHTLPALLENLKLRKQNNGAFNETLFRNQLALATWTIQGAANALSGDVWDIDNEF
- assay method text: ELISA on plate-coated recombinant hTfR1, fluorescent anti-(H+L) IgG-A488 detection, % normalized RFUs
property name: EC50

Examples with their reported EC50 follow.
binder="humanized anti-TfR Fab 5H12 VH5 (C33Y)/Vκ3 (Fab, V domains shown, also called 5H12 (VH5-C33Y/Vk3)) VH: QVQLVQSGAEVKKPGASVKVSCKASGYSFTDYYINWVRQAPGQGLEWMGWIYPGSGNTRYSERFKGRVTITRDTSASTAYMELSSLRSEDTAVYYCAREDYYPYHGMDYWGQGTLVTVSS VL: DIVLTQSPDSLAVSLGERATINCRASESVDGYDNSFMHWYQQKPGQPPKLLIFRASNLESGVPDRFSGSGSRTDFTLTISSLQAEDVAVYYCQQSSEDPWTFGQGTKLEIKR" endpoint_value="> 100 nM"
binder="humanized anti-TfR Fab 5H12 VH5 (C33Y)/Vκ4 (Fab, V domains shown, also called 5H12 (VH5-C33Y/Vk4)) VH: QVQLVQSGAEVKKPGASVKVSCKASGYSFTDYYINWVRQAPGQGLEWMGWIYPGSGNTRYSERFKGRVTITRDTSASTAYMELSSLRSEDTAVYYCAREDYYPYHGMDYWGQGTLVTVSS VL: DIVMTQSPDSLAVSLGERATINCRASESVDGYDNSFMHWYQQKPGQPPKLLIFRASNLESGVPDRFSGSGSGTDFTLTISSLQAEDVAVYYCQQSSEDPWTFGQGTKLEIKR" endpoint_value="> 100 nM"

QUERY: # get_value(readout='EC50', item= humanized anti-TfR Fab 3A4 VH3 (N54T)/Vκ4 (Fab, V domains shown, also called 3A4 (VH3-N54T/Vk4)) VH: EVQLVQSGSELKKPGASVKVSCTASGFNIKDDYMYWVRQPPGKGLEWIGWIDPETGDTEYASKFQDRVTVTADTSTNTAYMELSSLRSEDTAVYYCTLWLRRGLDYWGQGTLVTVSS VL: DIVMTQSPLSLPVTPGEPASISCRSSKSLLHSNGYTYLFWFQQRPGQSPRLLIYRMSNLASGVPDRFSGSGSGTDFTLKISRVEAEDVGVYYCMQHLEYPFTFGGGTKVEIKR )
RESULT: 2.3 nM
